Where do these numbers come from? They come from patent US9402826B2.

# assaySystem: PKG (Homo sapiens, UniProt Q13976)
# methodDescription: PKG inhibition: transfer of gamma-32P from ATP to peptide substrate
# Type: biochemical
# assaySetup: PKG inhibition (IC50), Table 3
Could you please report measured pIC50 for the items listed next?
Numbers only, as −log10 of the molar value.

1. O=C(NC1CCCC1OC(=O)c1cc(O)c(C(=O)c2c(O)cccc2C(=O)O)c(O)c1)c1ccc(O)cc1 (centres unmarked) [Compound B-1, reference compound] :: 8.15

Read the next record carefully.
Can you look up the measured pIC50 of O=C(NC1CNCC1OC(=O)c1cc(O)c(C(=O)c2c(O)cccc2C(=O)O)c(O)c1)c1ccc(O)cc1 (centres unmarked) [Compound B-2, reference compound] for me? 8.15

====

# assaySystem: PKA (Homo sapiens)
# methodDescription: PKA inhibition
# Assay type: biochemical
# assaySetup: Series B, Table 2; read-out: Activity: IC50 vrs PKA
observable: IC50 (nM)
Answers are plain numbers, in nM.

Can you look up the measured IC50 of COc1ccc(O)c(C(=O)c2ccc(C(=O)OC3CNCC3NC(=O)c3ccc(O)cc3)cc2)c1F (stereo not shown) for me? 38

====

# assaySystem: PKG (Homo sapiens, UniProt Q13976)
# Sequence (Q13976 1-671): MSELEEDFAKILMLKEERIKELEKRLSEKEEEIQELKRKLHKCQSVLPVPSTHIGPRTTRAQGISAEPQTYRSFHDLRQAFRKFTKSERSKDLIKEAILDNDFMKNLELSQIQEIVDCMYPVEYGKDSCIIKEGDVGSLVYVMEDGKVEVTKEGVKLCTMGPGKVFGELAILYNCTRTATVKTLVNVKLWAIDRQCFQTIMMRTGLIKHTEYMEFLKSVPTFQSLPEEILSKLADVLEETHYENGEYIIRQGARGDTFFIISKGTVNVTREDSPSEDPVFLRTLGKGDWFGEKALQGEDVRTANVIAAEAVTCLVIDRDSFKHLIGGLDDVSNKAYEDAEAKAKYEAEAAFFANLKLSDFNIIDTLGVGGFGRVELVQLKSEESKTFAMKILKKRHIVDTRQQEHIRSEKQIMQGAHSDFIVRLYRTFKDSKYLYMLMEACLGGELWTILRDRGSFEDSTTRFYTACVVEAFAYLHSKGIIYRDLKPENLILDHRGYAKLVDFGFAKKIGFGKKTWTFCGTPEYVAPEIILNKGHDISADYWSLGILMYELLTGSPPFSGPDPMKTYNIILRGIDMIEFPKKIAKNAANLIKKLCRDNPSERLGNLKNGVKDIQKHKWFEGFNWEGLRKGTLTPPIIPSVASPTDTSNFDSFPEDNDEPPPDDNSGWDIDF
# methodDescription: PKG inhibition: transfer of gamma-32P from ATP to peptide substrate
# Type: biochemical
# assaySetup: Table 3; read-out: PKG inhibition (IC50)
observable: IC50
Could you write the number and then its unit?

Can you look up the measured IC50 of O=C(NC1CNCCCC1OC(=O)c1cc(O)c(C(=O)c2c(O)cccc2C(=O)O)c(O)c1)c1ccc(O)cc1 (stereo not shown) [balanol, reference compound] for me? 1.6 nM

====

# assaySystem: UniProt:Q13976
# methodDescription: PKG inhibition: transfer of gamma-32P from ATP to peptide substrate
# Format: biochemical
# assaySetup: Activity: IC50 vrs PKG, Series B; 30 μM ATP
observable: pIC50
Numbers only, as −log10 of the molar value.

Example compounds with recorded pIC50:
1. O=C(NC1CNCC1OC(=O)c1cc(O)c(C(=O)c2c(O)cccc2C(=O)O)c(O)c1)c1ccc(O)cc1 (stereo not shown) [Compound B-2, reference compound] :: 8.15
2. COc1ccc(O)c(C(=O)c2ccc(C(=O)OC3CNCC3NC(=O)c3ccc(O)cc3)cc2)c1F (stereo not shown) [Compound B-7] :: 7.40

Read the next record carefully.
Can you look up the measured pIC50 of COCOc1ccc(OC)c(F)c1C(=O)c1ccc(C(=O)OC2CNCC2NC(=O)c2ccc(O)cc2)cc1 (stereo not shown) [Compound B-6] for me? 7.40
